- TESTED_ON: human SGLT2 (Homo sapiens)
- Sequence (P31639 1-672): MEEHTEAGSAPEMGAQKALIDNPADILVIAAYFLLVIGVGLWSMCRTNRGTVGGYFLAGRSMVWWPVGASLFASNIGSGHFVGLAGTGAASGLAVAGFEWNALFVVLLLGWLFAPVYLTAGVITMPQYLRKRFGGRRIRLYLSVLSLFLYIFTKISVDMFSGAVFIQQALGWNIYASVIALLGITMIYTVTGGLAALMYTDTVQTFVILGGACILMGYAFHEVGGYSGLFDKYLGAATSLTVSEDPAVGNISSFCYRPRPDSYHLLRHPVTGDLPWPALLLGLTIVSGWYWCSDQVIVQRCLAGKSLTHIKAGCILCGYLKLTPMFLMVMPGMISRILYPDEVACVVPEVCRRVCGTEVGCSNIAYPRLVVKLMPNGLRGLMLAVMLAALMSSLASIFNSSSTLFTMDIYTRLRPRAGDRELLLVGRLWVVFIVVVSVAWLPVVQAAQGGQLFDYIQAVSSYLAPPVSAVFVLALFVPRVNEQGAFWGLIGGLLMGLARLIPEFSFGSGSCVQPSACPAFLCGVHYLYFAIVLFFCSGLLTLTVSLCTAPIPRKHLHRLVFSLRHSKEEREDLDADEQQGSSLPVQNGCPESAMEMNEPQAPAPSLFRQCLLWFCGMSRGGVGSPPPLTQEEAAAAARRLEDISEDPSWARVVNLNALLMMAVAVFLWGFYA
- PROTOCOL_NOTES: Inhibition of sodium dependent [14C]-AMG uptake in CHO cells stably expressing human SGLT2
- MEASUREMENT_PARAMETERS: CHO cells expressing human SGLT2, [14C]-AMG uptake
Would you kindly list pIC50 for each of these compounds?
Would you please state pIC50, meaning minus log10 of the concentration in mol/L, as a bare number?

Notebook: OC[C@H]1OC(c2ccc(Cl)c(Cc3ccc(OC4C5COCC54)cc3)c2)[C@H](O)[C@@H](O)[C@@H]1O (some centres unmarked) , pIC50 read as 8.50

Notebook: OC[C@H]1OC(c2ccc(Cl)c(Cc3ccc(C4CCC5(CCC5)CC4)cc3)c2)[C@H](O)[C@@H](O)[C@@H]1O (some centres unmarked) , pIC50 read as 8.40

* * *

- PROTOCOL_NOTES: Rat in vivo pharmacokinetic assay (IV and PO)
- Design: species or system SD rats
- MEASUREMENT_PARAMETERS: plasma; male SD rat, PO, 5 mg/kg, time 0→t
ENDPOINT_NAME: AUC(0-t) (ng·h/mL)
// note: answer is a bare numeric in ng·h/mL

Notebook: OC[C@H]1OC(c2ccc(Cl)c(Cc3ccc(OC4C5COCC54)cc3)c2)[C@H](O)[C@@H](O)[C@@H]1O (stereo partly shown) [Compound 10] , AUC(0-t) read as 430

Notebook: OC[C@H]1O[C@@H](c2ccc(Cl)c(Cc3ccc(O[C@H]4CCOC4)cc3)c2)[C@H](O)[C@@H](O)[C@@H]1O [BI-10773, reference compound] , AUC(0-t) read as 426

Notebook: OC[C@H]1OC(c2ccc(Cl)c(Cc3ccc(C4CCC5(CCC5)CC4)cc3)c2)[C@H](O)[C@@H](O)[C@@H]1O (stereo partly shown) [Compound 13] , AUC(0-t) read as 6220

Notebook: OC[C@H]1OC(c2ccc(Cl)c(Cc3ccc(OC4CC5CC5C4)cc3)c2)[C@H](O)[C@@H](O)[C@@H]1O (stereo partly shown) [Compound 4] , AUC(0-t) read as 26300
